Biological target: T1, CFP WT βA3-crystallin (UniProt P05813 1-215)
T1 construct: βA3-crystallin, wild type; Surmise: N1 vectors place the fluorescent protein at the C-terminus of the insert; Expressed as ~51 kDa protein; degraded products were also seen on blots; also called CFP βA3-crystallin; βA3- CFP; source: HeLa, transfected, in live cells
Assay: FRET or BRET; FLIM-FRET in live HeLa cells co-transfected with CFP βA3-crystallin (donor) and YFP-tagged acceptors; donor life-time after 405 nm pulsed excitation; E = 1-TFRET/TCFP with TCFP 2.8 ns; 5-6 cells from 3 samples
Conditions: partners not purified
Recorded mean life-time of the donor CFP βA3-crystallin for the following binders
Assay metric: mean life-time of the donor CFP βA3-crystallin

# Binder, Reported value
data = [
    ("YFP αB NTD (N-terminal domain of αB-crystallin, 1–64 amino acids) (domain or fragment, UniProt P02511 1-64, looked up, αB-crystallin N-terminal domain, residues 1-64; also called αB NTD-YFP; source: HeLa, transfected, in live cells) MDIAIHHPWIRRPFFPFHSPSRLFDQFFGEHLLESDLFPTSTSLSPFYLRPPSFLRAPSWFDTG", "2.1 ns"),
    ("YFP WT αB-crystallin (natural protein, UniProt P02511 1-175, looked up, αB-crystallin, wild type, in pZS Yellow1-N1; Surmise: whole αB-crystallin (1-175, as the domain limits imply) with the fluorescent protein at the C-terminus (N1 vector); Expressed as ~46 kDa protein; also called WT YFP αB-crystallin; YFP αB; source: HeLa, transfected, in live cells) MDIAIHHPWIRRPFFPFHSPSRLFDQFFGEHLLESDLFPTSTSLSPFYLRPPSFLRAPSWFDTGLSEMRLEKDRFSVNLDVKHFSPEELKVKVLGDVIEVHGKHEERQDEHGFISREFHRKYRIPADVDPLTITSSLSSDGVLTVNGPRKQVSGPERTIPITREEKPAVTAAPKK", "2.4 ns"),
    ("YFP αB N78D crystallin (natural protein, UniProt P02511 1-175, looked up, αB-crystallin N78D, made by site-directed mutagenesis of the pZS Yellow1-N1 construct of αB-crystallin; Same limits as m12; source: HeLa, transfected, in live cells) MDIAIHHPWIRRPFFPFHSPSRLFDQFFGEHLLESDLFPTSTSLSPFYLRPPSFLRAPSWFDTGLSEMRLEKDRFSVDLDVKHFSPEELKVKVLGDVIEVHGKHEERQDEHGFISREFHRKYRIPADVDPLTITSSLSSDGVLTVNGPRKQVSGPERTIPITREEKPAVTAAPKK", "1.6 ns"),
]
